Would you kindly list IC50 for each of these compounds?
Target: 20S proteasome
Assay: Inhibition of human 20S proteasome
Type: subcellular
Numbers only, in nM.

Consider the reported IC50 for these compounds:
>>> number("CCCCCC(O)[C@H]1C(=O)N[C@](C(=O)O)([C@@H](O)[C@@H]2C=CCCC2)[C@@]1(C)O (some centres not stated) [CINNABARAMIDE D]")
100
>>> number("CCCCCC[C@H]1C(=O)N[C@](C(=O)SC[C@H](NC(C)=O)C(=O)OC)([C@@H](O)[C@@H]2C=CCCC2)[C@@]1(C)O [CINNABARAMIDE G]")
0.6
>>> number("CCCCCC[C@H]1C(=O)N[C@@]2(C[C@@H]3C=CCCC3)C(=O)O[C@@]12C [CINNABARAMIDE C]")
12
>>> number("CCCCCC[C@H]1C(=O)N[C@](C(=O)O)([C@@H](O)[C@@H]2C=CCCC2)[C@@]1(C)O [CINNABARAMIDE E]")
136
>>> number("CCCCCC[C@H]1C(=O)N[C@@]2([C@@H](O)[C@@H]3C=CCCC3)C(=O)O[C@@]12C [CINNABARAMIDE A]")
1

For every item in the list below, what is its measured IC50?
1. CCCCCC(O)[C@H]1C(=O)N[C@@]2([C@@H](O)[C@@H]3C=CCCC3)C(=O)O[C@@]12C (some centres not stated) [CINNABARAMIDE B]
2. CCCCCC[C@H]1C(=O)N[C@](C(=O)SC[C@H](NC(C)=O)C(=O)O)([C@@H](O)[C@@H]2C=CCCC2)[C@@]1(C)O [CINNABARAMIDE F]

Output:
[245, 6]

----------
Assay: Stability in neutral pH after 48 hrs
Format: physicochemical
Conditions: read-out: Stability
Recorded Metric: remaining at 48 h (%)
Answers are plain numbers, in %.

Task: Given CCCCCC[C@H]1C(=O)N[C@](C(=O)SC[C@H](NC(C)=O)C(=O)OC)([C@@H](O)[C@@H]2C=CCCC2)[C@@]1(C)O [CINNABARAMIDE G] , state its recorded remaining at 48 h.
Output: 90

----------
Target: Trypsin (Homo sapiens) (UniProt P07477+P07478+P35030)
Assay: Inhibition of trypsin up to 100 uM
Format: protein assay
The source made the active and inactive calls. No cut-off for these calls is given here.
Recorded Metric: Activity

Consider the reported Activity for these compounds:
>>> result("CCCCCC(O)[C@H]1C(=O)N[C@@]2([C@@H](O)[C@@H]3C=CCCC3)C(=O)O[C@@]12C (some centres not stated) [CINNABARAMIDE B]")
"inactive"
>>> result("CCCCCC(O)[C@H]1C(=O)N[C@](C(=O)O)([C@@H](O)[C@@H]2C=CCCC2)[C@@]1(C)O (some centres not stated) [CINNABARAMIDE D]")
"inactive"
>>> result("CCCCCC[C@H]1C(=O)N[C@](C(=O)SC[C@H](NC(C)=O)C(=O)OC)([C@@H](O)[C@@H]2C=CCCC2)[C@@]1(C)O [CINNABARAMIDE G]")
"inactive"
>>> result("CCCCCC[C@H]1C(=O)N[C@](C(=O)SC[C@H](NC(C)=O)C(=O)O)([C@@H](O)[C@@H]2C=CCCC2)[C@@]1(C)O [CINNABARAMIDE F]")
"inactive"
>>> result("CCCCCC[C@H]1C(=O)N[C@@]2([C@@H](O)[C@@H]3C=CCCC3)C(=O)O[C@@]12C [CINNABARAMIDE A]")
"inactive"
>>> result("CCCCCC[C@H]1C(=O)N[C@](C(=O)O)([C@@H](O)[C@@H]2C=CCCC2)[C@@]1(C)O [CINNABARAMIDE E]")
"inactive"

Now look at this entry.
Task: Given CCCCCC[C@H]1C(=O)N[C@@]2(C[C@@H]3C=CCCC3)C(=O)O[C@@]12C [CINNABARAMIDE C] , state its recorded Activity.
Output: inactive
